Exercise: for every item that follows, state its recorded growth.
Tested on: SK-MEL-28 melanoma
assay-procedure: NCI-60 one-dose screen, 48 h (100 = growth as untreated, 0 = no growth, -100 = all killed)
test-context: 10 µM unless noted
Experimental: Growth inhibition of the SK-MEL-28 human tumor cell line is measured as a screen for anti-cancer activity. Cells are grown in 96 well plates and exposed to the test compound for 48 hours. Compounds are tested at a single concentration, which is 10^-5 M for most compounds. The reported endpoint is percent growth (GI% or GIPRCNT), where numbers from 0 - 100% represent growth inhibition, and numbers from -100% - 0 represent cell death. For example, a value of 40 represents 60% growth inhibition. […]
Compounds without any hit were thinned out: in the full panel of roughly 83,000, 20% have a hit.
Report only the number, with the unit % understood.

May I ask what growth has been recorded for COc1cc(OC)c(Cl)cc1N ? 109

Same read-out for CN(C)c1nc(-c2ccco2)n2nc(-c3ccc(Cl)cc3)cc2n1 ? 94.8

Another: CCOC(=O)c1cc(C(=O)OCC)c(C)nc1C 112

Proceed to COc1cc(OC)c2sc(-c3ccc(-n4cncc4-c4ccc(OC)c(N)c4)cc3)nc2c1 104

###

Would you mind telling me the reported growth of each entry?
Test system: SF-295 CNS
assay-procedure: NCI-60 one-dose screen, 48 h (100 = growth as untreated, 0 = no growth, -100 = all killed)
test-context: 10 µM unless noted
The panel holds about 83,000 compounds, 20% with a hit somewhere; the sample as a whole holds those more often. The source made the active and inactive calls. The calls were made as follows: active = growth percent below 10; inactive = the rest.

Report growth for CCC1N=C(N)N=C(N)N1c1ccc(Cl)cc1 (configuration not stated) please. 88.9% (inactive)

Can you handle Cc1cc(O)ccc1Sc1ccccc1[N+](=O)[O-] next? 90.1% (inactive)

Lookup Cc1nn(-c2cccc(Cl)c2)c(C)c1N=Nc1ccc(Br)cc1 91.8% (inactive)

Can you check C=CCOC(=O)C1=C(C)NC2=C(C(=O)CC(C)(C)C2)C1c1ccc(OC)cc1 (configuration not stated) next? 105% (inactive)

And then O=C(Nc1ccc(-n2ccc3c(NC(=O)c4ccccc4)nccc32)cc1)c1ccc(N2CCOCC2)c(C(F)(F)F)c1 , what is it? -7.34% (active)

CCCNCCC(C)=O , same question. 97.1% (inactive)

How about this molecule: COc1ccc(/C(C)=N/NC(=O)c2ccc(S(C)(=O)=O)cc2)cc1OC 98.3% (inactive)

// next record COc1ccccc1/C=N\Nc1ccc([N+](=O)[O-])cn1 96.3% (inactive)

And CC(=O)OC[C@H]1O[C@@H](n2c(=O)cc(N)[nH]c2=O)C(OC(C)=O)[C@@H]1OC(C)=O (some centres not stated) ? 94.2% (inactive)

Further, for CCN(CCC#N)c1ccccc1 ? 102% (inactive)

Repeat with FC(F)(F)c1nn[nH]n1 106% (inactive)

Would you mind doing O=C1/C(=C/N2N=C(c3ccc(Cl)cc3)CC2c2ccccc2O)SC(=S)N1c1cccc(C(F)(F)F)c1 (configuration not stated) as well? 64.7% (inactive)

Same read-out for COc1ccc(-c2cc(C(=O)Nc3ccc(C)cc3)nc3[nH]c(=O)sc23)cc1 ? 70.7% (inactive)

Thanks! And COc1ccc(NC(=O)Cn2c(=O)sc3c(-c4ccc(Cl)cc4)cc(-c4ccc(Cl)cc4)nc32)cc1 ? 95.8% (inactive)

For O=C(NNC(=O)c1cccc(Cl)c1)c1ccccc1 then? 106% (inactive)

Then CN(C)CCCn1c(=O)c2cc([N+](=O)[O-])ccc2c2cnc3[nH]ccc3c21 ? 43.9% (inactive)

Now try CSC1=N/C(=C\c2cccc(OCc3ccc(Cl)cc3)c2)C(=O)N1 . 87.6% (inactive)

Now give it for Cc1ccc([C@H]2c3[nH]c4ccccc4c3C[C@H]3C(=O)N(CCCCCCC(=O)NO)CC(=O)N23)cc1 too. 67.4% (inactive)

Would you mind doing CCNC(=O)c1ccc2c(c1)nc(-c1ccc(Cl)cc1)n2-c1cc(C(C)(C)C)[nH]n1 as well? 16.4% (inactive)

Continue with O=C(CCl)Nc1ccc2c(c1)C(=O)c1ccccc1C2=O 69.9% (inactive)

// same read-out, input: Oc1c(C(Nc2ccccc2Br)c2ccccc2)ccc2cccnc12 (configuration not stated) 13.6% (inactive)

Next entry: COc1ccc(C2=NNC(c3ccc(Oc4nc5c(c(=O)n(C)c(=O)n5C)n4C)c(OC)c3)C2)cc1 (configuration not stated) 88.9% (inactive)

Please do the same for CCCCCCCCCCCCCC1=NC(C)(C)CN1C(C)C as well. -52.8% (active)

Next record, please: Cc1c(C(N)=O)sc2ncn(CC(=O)NN=C3CCCCC3)c(=O)c12 98.6% (inactive)

And then Cc1cccc2nc3ccccc3c(Nc3ccc(NS(C)(=O)=O)cc3)c12 , what is it? 21.6% (inactive)

Another molecule to check: C=C1C(=O)O[C@H]2[C@H]1CC/C(COC(=O)NCc1cn(C)c3ccccc13)=C\CC[C@@]1(C)O[C@@H]21 63.2% (inactive)

Follow-up entry: CCCCCCCCCCCCNC(=O)N[C@H](C(=O)N[C@H]1/C=C/CCNC(=O)/C=C/[C@H](C)NC1=O)C(C)C -37.4% (active)
